Hi there, I'd appreciate the recorded chemical recovery by SPE of plasma for every entry that follows.
- Method notes: chemical recovery by SPE of plasma after PDMS sampling; higher = better extraction;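 further: over 400 spiked chemicals quantified by LC-HRMS or GC-HRMS via internal standard calibration, recovery relative to spike mix added to unspiked plasma extract to correct matrix effects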
- Condition: pooled human plasma; extraction method: HLB SPE of plasma after PES; equilibration time (d): 6
Answers are plain numbers, in %.

Here are 5 compounds together with their reported answers.
{"Compound": "C[C@]12C=CC(=O)C=C1CC[C@@H]1[C@@H]2C(=O)C[C@@]2(C)[C@H]1CC[C@]2(O)C(=O)CO [Prednisone]", "Unit symbol": "%", "Assay result": 41.1}
{"Compound": "Nc1ccc(-c2ccc(N)cc2)cc1 [Benzidine]", "Unit symbol": "%", "Assay result": 3.81}
{"Compound": "CCCCn1cc[n+](C)c1 [1-Butyl-3-methyl-imidazolium]", "Unit symbol": "%", "Assay result": 4.03}
{"Compound": "CC[N+](CC)(CC(=O)Nc1c(C)cccc1C)Cc1ccccc1 [Denatonium]", "Unit symbol": "%", "Assay result": 54.9}
{"Compound": "CC/C(=C(\\c1ccccc1)c1ccc(OCCN(C)C)cc1)c1ccccc1 [Tamoxifen]", "Unit symbol": "%", "Assay result": 0.104}

For each of the compounds below, state chemical recovery by SPE of plasma.
1. c1ccc2c(c1)-c1cccc3cccc-2c13 [Fluoranthene]
2. CC1=CC(=O)NS(=O)(=O)O1 [Acesulfame]
3. Clc1ccc(-c2cc(Cl)c(Cl)cc2Cl)cc1Cl [PCB118]
4. CCN(CCCCOC(=O)c1ccc(OC)c(OC)c1)C(C)Cc1ccc(OC)cc1 (stereo unspecified) [Mebeverine]
5. Nc1cnn(-c2ccccc2)c(=O)c1Cl [Chloridazon]
6. CC(C)C1(C)N=C(c2ncccc2C(=O)O)NC1=O (stereo unspecified) [Imazapyr]

[3.75, 8.53, 1.71, 0.145, 51.8, 49.2]
